# Species: Rattus norvegicus
# experimental.details: Open TG-GATES - Regimen: Daily Repeat
# Assay type: toxicity, organism-based, Sprague-Dawley
# Parameters: regimen Daily Repeat, gender Male, age 6 weeks
# study.conditions: in vivo, po, 300 mg/kg, […], tissue Blood, route gavage, dose level Middle, time 28 day
readout.kind: Fbg (mg/dL)
Answers are plain numbers, in mg/dL.

| compound | Fbg, mg/dL |
| --- | --- |
| COc1ccc2[nH]c([S+]([O-])Cc3ncc(C)c(OC)c3C)nc2c1 (stereo not given) [OMEPRAZOLE] | 203 |
| CCOC(=O)CCC(=O)O[C@H]1[C@H](O[C@@H]2[C@@H](C)[C@H](O[C@H]3C[C@@](C)(OC)[C@@H](O)[C@H](C)O3)[C@@H](C)C(=O)O[C@H](CC)[C@@](C)(O)[C@H](O)[C@@H](C)C(=O)[C@H](C)C[C@@]2(C)O)O[C@H](C)C[C@@H]1N(C)C [ERYTHROMYCIN ETHYLSUCCINATE] | 339.2 |
| NC(N)=Nc1nc(CSCCC(N)=NS(N)(=O)=O)cs1 [FAMOTIDINE] | 220.6 |
| COC1=CC(=O)C[C@@H](C)[C@]12Oc1c(Cl)c(OC)cc(OC)c1C2=O [GRISEOFULVIN] | 215.8 |

Entry under review: CCOc1ccc(NC(=O)CC(C)O)cc1 (stereo not given) [BUCETIN] . Reported Fbg?
274

###

# Species: Rattus norvegicus
# experimental.details: Open TG-GATES - Regimen: Daily Repeat
# Assay type: toxicity, organism-based, Sprague-Dawley
# Design: regimen Daily Repeat, gender Male, age 6 weeks
# study.conditions: in vivo, po, 0 mg/kg, […], tissue Blood, route gavage, dose level Control, time 28 day
readout.kind: RBC (x10_4/ul)
Numbers only, in x10_4/ul.

| molecule | unit.tag | RBC |
| --- | --- | --- |
| CN(C)CCN(Cc1cccs1)c1ccccn1 | x10_4/ul | 751.4 |
| CCOC(=O)CCC(=O)O[C@H]1[C@H](O[C@@H]2[C@@H](C)[C@H](O[C@H]3C[C@@](C)(OC)[C@@H](O)[C@H](C)O3)[C@@H](C)C(=O)O[C@H](CC)[C@@](C)(O)[C@H](O)[C@@H](C)C(=O)[C@H](C)C[C@@]2(C)O)O[C@H](C)C[C@@H]1N(C)C [ERYTHROMYCIN ETHYLSUCCINATE] | x10_4/ul | 783.8 |

Entry under review: CC(C)OC(=O)C(C)(C)Oc1ccc(C(=O)c2ccc(Cl)cc2)cc1 [FENOFIBRATE] . Reported RBC?
774.4

###

Can you tell me KIDNEY_L for the items I'm about to list?
# Species on record: Rattus norvegicus
# experimental.details: Open TG-GATES - Regimen: Single
# Format: toxicity, organism-based, Sprague-Dawley
# Parameters: regimen Single, gender Male, age 6 weeks
# study.conditions: in vivo, po, 100 mg/kg, 3 h, tissue Kidney, route gavage, dose level Low
One number for each entry, in g.

| compound | unit.tag | KIDNEY_L |
| --- | --- | --- |
| CCOC(=O)CCC(=O)O[C@H]1[C@H](O[C@@H]2[C@@H](C)[C@H](O[C@H]3C[C@@](C)(OC)[C@@H](O)[C@H](C)O3)[C@@H](C)C(=O)O[C@H](CC)[C@@](C)(O)[C@H](O)[C@@H](C)C(=O)[C@H](C)C[C@@]2(C)O)O[C@H](C)C[C@@H]1N(C)C [ERYTHROMYCIN ETHYLSUCCINATE] | g | 0.9 |
| NC(N)=Nc1nc(CSCCC(N)=NS(N)(=O)=O)cs1 | g | 1 |
| COC1=CC(=O)C[C@@H](C)[C@]12Oc1c(Cl)c(OC)cc(OC)c1C2=O | g | 0.9 |

Pending compound:
Entry under review: COc1ccc2[nH]c([S+]([O-])Cc3ncc(C)c(OC)c3C)nc2c1 (centres undefined) . Reported KIDNEY_L?
1

These data points were gathered from ChEMBL document CHEMBL3885861.
